These measurements were taken from the supplement of paper PMC7125110.

B1: glmS ribozyme (parent)
chain: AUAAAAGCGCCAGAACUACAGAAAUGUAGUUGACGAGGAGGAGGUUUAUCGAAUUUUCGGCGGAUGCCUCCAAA

- Variants of: B1
- Experiment Notes: self-cleavage kobs at 2500 uM GlcN6P; higher = faster cleavage; RNA array
- Protocol Conditions: with glucosamine-6-phosphate
This sample holds only a part of the variants without activity.
Each entry below carries its recorded self-cleavage kobs at 2500 uM GlcN6P.

Example entries and their recorded answers appear below.
{"Mutant Designation": "A64G U69A", "self-cleavage kobs at 2500 uM GlcN6P": "4.75e-05 s⁻¹"}
{"Mutant Designation": "G35A G38C C58U", "self-cleavage kobs at 2500 uM GlcN6P": "< 1e-05 s⁻¹"}
{"Mutant Designation": "A15G A39U G41A", "self-cleavage kobs at 2500 uM GlcN6P": "0.000369 s⁻¹"}
{"Mutant Designation": "C61U C70U", "self-cleavage kobs at 2500 uM GlcN6P": "3.31e-05 s⁻¹"}
{"Mutant Designation": "A12C A39G U49C", "self-cleavage kobs at 2500 uM GlcN6P": "< 1e-05 s⁻¹"}

Turning to the following variant.
Please look up its self-cleavage kobs at 2500 uM GlcN6P: C34A G44U G51C
< 1e-05 s⁻¹
